Experiment: Selectivity index, ratio of IC50 for human HeLa cells to MIC for clindamycin/erythromycin/spectinomycin-resistant mec-positive Staphylococcus aureus NRS70
Assay type: toxicity
One threshold, 40, splits the recorded selectivity ratio values: lower ones are yes (1), equal or higher ones are no (0).

| LINE_NOTATION | CLASS |
| --- | --- |
| N#Cc1ccc(/C=C/c2nc3ccccc3c(=O)n2-c2cccc(C(N)=O)c2)cc1 | no (0) |

Now look at this entry.
Problem: Just wondering, is selectivity ratio of `O=C(O)c1cccc(-n2c(/C=C/c3ccc(I)cc3)nc3ccccc3c2=O)c1` below 40?
Solution: no (0)

###

Assay: Protein binding in human plasma at 10 uM measured after 6 hrs UV-UPLC based rapid equilibrium dialysis method
Type: ADME, cell-free
READOUT_KIND: PPB

| LINE_NOTATION | PPB |
| --- | --- |
| O=C(O)c1cccc(-n2c(CCc3ccc(F)cc3)nc3ccccc3c2=O)c1 | > 99.9% |

Problem: # get_value(readout='PPB', item= `O=C(O)c1cccc(-n2c(/C=C/c3cc(Cl)cs3)nc3ccccc3c2=O)c1` )
Solution: > 99.9%

###

System: Staphylococcus aureus
Assay: Antibacterial activity against Staphylococcus aureus ATCC 29213 measured after 16 to 20 hrs by microdilution method
Assay type: functional
READOUT_KIND: MIC

Example results:
| LINE_NOTATION | MIC |
| --- | --- |
| N#Cc1ccc(/C=C/c2nc3ccccc3c(=O)n2CCC(=O)O)cc1 | > 128 µg/mL |
| Nc1cccc(-n2c(N3CCCCC3)nc3ccccc3c2=O)c1 | > 128 µg/mL |

Problem: # get_value(readout='MIC', item= `COC(=O)c1cccc(-n2c(NCc3ccc(F)cc3)nc3ccccc3c2=O)c1` )
Solution: > 128 µg/mL

###

Form field: selectivity ratio (one value per entry).
Experiment: Selectivity index, ratio of IC50 for human HeLa cells to MIC for clindamycin/erythromycin/spectinomycin-resistant mec-positive Staphylococcus aureus NRS70
Assay type: toxicity

Example results:
| LINE_NOTATION | selectivity ratio |
| --- | --- |
| N#Cc1ccc(/C=C/c2nc3ccccc3c(=O)n2-c2ccccc2O)cc1 | 667 |
| N#Cc1ccc(CSc2nc3ccccc3c(=O)n2-c2cccc(C(=O)O)c2)cc1 | 39 |
| Cc1ccc(C(=O)O)cc1-n1c(/C=C/c2ccc(C#N)cc2)nc2ccccc2c1=O | 15 |

# next compound below
Problem: # get_value(readout='selectivity ratio', item= `O=C(O)c1cccc(-n2c(/C=C/c3ccc(Cl)s3)nc3ccccc3c2=O)c1` )
Solution: 360

###

Form field: PPB (one value per entry).
Experiment: Protein binding in human plasma at 10 uM measured after 6 hrs UV-UPLC based rapid equilibrium dialysis method
Assay type: ADME, cell-free

Example results:
| LINE_NOTATION | EXPERIMENTAL_RESULT |
| --- | --- |
| N#Cc1ccc(/C=C/c2nc3ccccc3c(=O)n2-c2cccc(S(N)(=O)=O)c2)cc1 | 97.1% |
| CC(=O)NS(=O)(=O)c1cccc(-n2c(/C=C/c3ccc(C#N)cc3)nc3ccccc3c2=O)c1 | 99.2% |
| N#Cc1ccc(/C=C/c2nc3ccccc3c(=O)n2-c2cccc(NC(=O)C(F)(F)F)c2)cc1 | > 99.9% |
| O=C(O)c1cccc(-n2c(/C=C/c3ccc(Cl)cc3)nc3ccccc3c2=O)c1 | > 99.9% |
| O=C(O)c1cccc(-n2c(/C=C/c3ccc(Br)s3)nc3ccccc3c2=O)c1 | > 99.9% |
| N#Cc1ccc(/C=C/c2nc3ccccc3c(=O)n2-c2cc(C(=O)O)ccc2F)cc1 | 95.4% |
| N#Cc1ccc(/C=C/c2nc3ccccc3c(=O)n2-c2cc(C(=O)O)ccc2Cl)cc1 | > 99.9% |
| CS(=O)(=O)Nc1cccc(-n2c(NCc3ccc(C#N)cc3)nc3ccccc3c2=O)c1 | > 99.9% |
| N#Cc1ccc(CSc2nc3ccccc3c(=O)n2-c2cccc(C(=O)O)c2)cc1 | > 99.9% |
| O=C(O)c1cccc(-n2c(SCc3ccccc3)nc3ccccc3c2=O)c1 | > 99.9% |

# next compound below
Problem: # get_value(readout='PPB', item= `N#Cc1ccc(/C=C/c2nc3ccccc3c(=O)n2-c2cccc(CNC(=O)C(F)(F)F)c2)cc1` )
Solution: > 99.9%

###

Form field: PPB (one value per entry).
Test: Protein binding in human plasma at 10 uM measured after 6 hrs UV-UPLC based rapid equilibrium dialysis method
Format: ADME, cell-free
Form entry: value (%) — number only.

Example results:
| LINE_NOTATION | EXPERIMENTAL_RESULT |
| --- | --- |
| C#Cc1ccc(/C=C/c2nc3ccccc3c(=O)n2-c2cccc(S(N)(=O)=O)c2)cc1 | 98.2 |
| N#Cc1ccc(/C=C/c2nc3ccccc3c(=O)n2-c2cccc(C(=O)O)c2)s1 | 99.2 |

Problem: # get_value(readout='PPB', item= `N#Cc1ccc(/C=C/c2nc3ccccc3c(=O)n2-c2ccccc2O)cc1` )
Solution: 98.1
